Please go through the items and note down their solubility (g/100 g solution).
# measurement protocol: xn = mol fraction of the nth substance listed, in the solute-free solvent
# stated conditions: 308.15 K; x2 = 0.1139
Numbers only.

>  <molecule>
Cc1ccc2cc(Br)ccc2n1 + CC(C)O + O

>  <solubility (g/100 g solution)>
0.576

$$$$
>  <molecule>
CN1CCC(N(Cc2cccs2)c2ccccc2)CC1 + CC(C)O + O

>  <solubility (g/100 g solution)>
0.879

$$$$
>  <molecule>
Nc1cccc2ccncc12 + CC(C)O + O

>  <solubility (g/100 g solution)>
0.534

$$$$
>  <molecule>
CN1CCC(N(Cc2cccs2)c2ccccc2)CC1 + CCCO + O

>  <solubility (g/100 g solution)>
1.11

$$$$

Field: next molecule
What value of measured solubility (g/100 g solution) is listed for Nc1cccc2ccncc12 + CCCO + O ? 0.668
